# measuredTarget: Fatty acid synthase (Homo sapiens)
# assaySummary: FAS thioesterase domain inhibitors, dose response, biochemical, fluorescence intensity, OMFH substrate (AID 1347040)
# conditionNotes: recombinant FAS-TE, OMFH fluorogenic substrate
Consider the following compounds and their measured IC50 readings.

Before answering, review these 3 worked examples.
>  <smilesCode>
CCN(CC)S(=O)(=O)c1ccc(-c2csc(Cc3cccc(I)c3)n2)cc1

>  <IC50>
8.69 µM

$$$$
>  <smilesCode>
CCN(CC)S(=O)(=O)c1ccc(-c2csc(C(c3ccccc3)c3ccccc3)n2)cc1

>  <IC50>
5.28 µM

$$$$
>  <smilesCode>
CCN(CC)S(=O)(=O)c1ccc(-c2csc(Cc3ccc(F)cc3)n2)cc1

>  <IC50>
0.918 µM

$$$$

Task: Hello, please tell me recorded IC50 for this one: `CCN(CC)S(=O)(=O)c1ccc(-c2csc(-c3cccc(Br)c3)n2)cc1`
Result: 5.04 µM

Task: Hello, please tell me recorded IC50 for this one: `CCN(CC)S(=O)(=O)c1ccc(-c2csc(C(C)C)n2)cc1`
Result: 4.2 µM
